Cited source: paper PMC7180638

Tgt: α-N-Acetylgalactosaminidase (Chicken liver) (Gallus gallus, UniProt Q90744)
Construct: purchased Sigma-Aldrich Chemical Co; host or cells: chicken liver
Sequence (Q90744 whole entry): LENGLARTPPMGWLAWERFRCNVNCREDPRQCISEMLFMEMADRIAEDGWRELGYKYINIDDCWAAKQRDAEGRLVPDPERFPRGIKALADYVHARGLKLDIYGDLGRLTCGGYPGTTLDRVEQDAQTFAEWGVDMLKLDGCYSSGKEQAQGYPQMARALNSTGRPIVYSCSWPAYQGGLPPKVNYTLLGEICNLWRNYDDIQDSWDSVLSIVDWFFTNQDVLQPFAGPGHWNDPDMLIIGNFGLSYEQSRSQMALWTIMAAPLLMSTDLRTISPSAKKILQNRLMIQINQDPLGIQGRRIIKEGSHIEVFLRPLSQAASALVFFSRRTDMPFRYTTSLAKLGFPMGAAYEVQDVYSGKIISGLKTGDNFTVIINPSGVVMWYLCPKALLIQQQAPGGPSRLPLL
Test description: α-N-Acetylgalactosaminidase (chicken liver) inhibition
Type: biochemical
Measurement conditions: 1000 μM, read-out: Inhibition % at 1000 μM
Counter-ions that a name gives are not always drawn.
Below, each entry is listed alongside its reported inhibition at 1000 µM.
Test readout: inhibition at 1000 µM (%)

1) CC(=O)NC[C@@H]1N[C@@H](CO)[C@@H](O)[C@H]1O [C-10] | 6.1
2) CC(=O)NC[C@@H]1N[C@@H](CO)[C@H](O)[C@H]1O [A-10] | 0
3) CC(=O)NC[C@H]1N[C@@H](CO)[C@H](O)[C@@H]1O [G-10] | 2.3
4) CC(=O)NC[C@@H]1N[C@@H](CO)[C@@H](O)[C@@H]1O [E-10b] | 0.5
5) CC(=O)NC[C@H]1N[C@H](CO)[C@@H](O)[C@@H]1O [4·HCl] | 3.3
6) CC(=O)NC[C@@H]1N[C@H](CO)[C@@H](O)[C@H]1O [H-10] | 6.1
7) CC(=O)NC[C@H]1N[C@@H](CO)[C@@H](O)[C@@H]1O [E-10a] | 1.4
8) CC(=O)NC[C@@H]1N[C@H](CO)[C@H](O)[C@H]1O [F-10a] | 0
9) CC(=O)NC[C@H]1N[C@H](CO)[C@H](O)[C@H]1O [F-10b] | 2.3

* * *

Tgt: β-Mannosidase (Snail)
Test description: β-Mannosidase (snail) inhibition
Assay type: biochemical
Measurement conditions: read-out: IC50
Counter-ions that a name gives are not always drawn.
Test readout: IC50 (µM)

1) CC(=O)NC[C@H]1N[C@H](CO)[C@@H](O)[C@@H]1O [4·HCl] | 296

* * *

Tgt: β-N-Acetylgalactosaminidase (HL60)
Test description: β-N-Acetylgalactosaminidase (HL60) inhibition
Type: biochemical
Measurement conditions: read-out: IC50
Counter-ions that a name gives are not always drawn.
Test readout: IC50 (µM)

1. CC(=O)NC[C@H]1N[C@H](CO)[C@H](O)[C@@H]1O | 8.8
2. CC(=O)NC[C@H]1N[C@H](CO)[C@@H](O)[C@@H]1O [4·HCl] | 9.5
3. CC(=O)NC[C@H]1N[C@@H](CO)[C@@H](O)[C@@H]1O [E-10a] | 490

* * *

Test system: β-N-Acetylhexosaminidase (Bovine liver)
Test description: β-N-Acetylhexosaminidase (bovine liver) inhibition
Type: biochemical
Measurement conditions: β-N-Acetylhexosaminidase, 1000 μM
Test readout: Inhibition % at 1000 μM

1. CC(=O)NC[C@@H]1N[C@H](CO)[C@H](O)[C@H]1O [F-10a] | 23.2%
2. CC(=O)NC[C@@H]1N[C@H](CO)[C@@H](O)[C@H]1O | 33.7%
3. CC(=O)NC[C@@H]1N[C@@H](CO)[C@@H](O)[C@H]1O | 36.3%
4. CC(=O)NC[C@@H]1N[C@@H](CO)[C@@H](O)[C@@H]1O [E-10b] | 38.4%

* * *

System: β-N-Acetylhexosaminidase (HL60)
Test description: β-N-Acetylhexosaminidase (HL60) inhibition
Format: biochemical
Measurement conditions: β-N-Acetylhexosaminidase, 1000 μM
Test readout: Inhibition % at 1000 μM (%)

1. CC(=O)NC[C@@H]1N[C@@H](CO)[C@H](O)[C@H]1O | 12.7
2. CC(=O)NC[C@@H]1N[C@H](CO)[C@@H](O)[C@H]1O | 0.3
3. CC(=O)NC[C@H]1N[C@@H](CO)[C@H](O)[C@@H]1O | 18.8
4. CC(=O)NC[C@@H]1N[C@H](CO)[C@H](O)[C@H]1O [F-10a] | 0
5. CC(=O)NC[C@@H]1N[C@@H](CO)[C@@H](O)[C@H]1O | 3.9
6. CC(=O)NC[C@@H]1N[C@@H](CO)[C@@H](O)[C@@H]1O [E-10b] | 4.5
7. CC(=O)NC[C@H]1N[C@H](CO)[C@H](O)[C@H]1O [F-10b] | 16.6

* * *

Tgt: α,α-Trehalase (Porcine kidney) (Sus scrofa, UniProt I3LIR5)
Construct: purchased Sigma-Aldrich Chemical Co; host or cells: porcine kidney
Sequence (I3LIR5 24-583): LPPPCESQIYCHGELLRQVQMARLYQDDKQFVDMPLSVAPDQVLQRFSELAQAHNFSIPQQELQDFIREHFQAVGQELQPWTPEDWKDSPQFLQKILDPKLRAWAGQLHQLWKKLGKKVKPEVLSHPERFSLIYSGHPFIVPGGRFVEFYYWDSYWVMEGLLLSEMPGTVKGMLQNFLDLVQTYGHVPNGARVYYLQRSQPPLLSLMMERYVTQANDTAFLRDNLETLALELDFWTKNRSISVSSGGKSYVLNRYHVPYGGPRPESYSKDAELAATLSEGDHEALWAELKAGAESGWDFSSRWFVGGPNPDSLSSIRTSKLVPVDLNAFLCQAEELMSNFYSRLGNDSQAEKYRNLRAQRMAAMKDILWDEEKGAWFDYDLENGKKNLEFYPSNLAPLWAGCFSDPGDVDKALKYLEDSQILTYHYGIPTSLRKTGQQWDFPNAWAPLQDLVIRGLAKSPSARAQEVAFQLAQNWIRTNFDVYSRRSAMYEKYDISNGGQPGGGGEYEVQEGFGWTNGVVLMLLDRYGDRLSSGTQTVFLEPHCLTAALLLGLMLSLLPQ
Test description: α,α-Trehalase (porcine kidney) inhibition
Type: biochemical
Measurement conditions: 1000 μM, read-out: Inhibition % at 1000 μM
Test readout: inhibition at 1000 µM

1. CC(=O)NC[C@H]1N[C@H](CO)[C@H](O)[C@@H]1O [D-10] | 0%
2. CC(=O)NC[C@@H]1N[C@@H](CO)[C@@H](O)[C@@H]1O [E-10b] | 0%
3. CC(=O)NC[C@@H]1N[C@@H](CO)[C@H](O)[C@H]1O [A-10] | 4.3%
4. CC(=O)NC[C@@H]1N[C@H](CO)[C@@H](O)[C@H]1O [H-10] | 40.9%
5. CC(=O)NC[C@@H]1N[C@H](CO)[C@H](O)[C@H]1O [F-10a] | 3%

* * *

We begin with a simple list: items and their reported inhibition at 1000 µM.
Tgt: α-Galactosidase (Coffee beans) (Coffea arabica, UniProt Q42656)
Construct: purchased Sigma-Aldrich Chemical Co
Sequence (Q42656 16-378): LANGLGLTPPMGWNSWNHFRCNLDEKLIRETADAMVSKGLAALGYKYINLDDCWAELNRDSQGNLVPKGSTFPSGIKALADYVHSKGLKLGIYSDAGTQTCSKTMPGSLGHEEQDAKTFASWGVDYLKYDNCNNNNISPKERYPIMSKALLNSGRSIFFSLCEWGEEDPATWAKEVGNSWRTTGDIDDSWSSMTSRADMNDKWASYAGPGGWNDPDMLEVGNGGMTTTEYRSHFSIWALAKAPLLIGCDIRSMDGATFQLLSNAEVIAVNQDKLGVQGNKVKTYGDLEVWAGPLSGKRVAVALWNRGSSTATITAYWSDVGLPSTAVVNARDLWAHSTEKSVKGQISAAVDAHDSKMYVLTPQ
Test description: α-Galactosidase (coffee beans) inhibition
Format: biochemical
Measurement conditions: 1000 μM, read-out: Inhibition % at 1000 μM
Counter-ions that a name gives are not always drawn.
Test readout: inhibition at 1000 µM (%)

1. CC(=O)NC[C@@H]1N[C@H](CO)[C@@H](O)[C@H]1O | 0
2. CC(=O)NC[C@@H]1N[C@@H](CO)[C@@H](O)[C@H]1O | 0.36
3. CC(=O)NC[C@@H]1N[C@@H](CO)[C@H](O)[C@H]1O | 0
4. CC(=O)NC[C@H]1N[C@@H](CO)[C@H](O)[C@@H]1O | 0
5. CC(=O)NC[C@@H]1N[C@@H](CO)[C@@H](O)[C@@H]1O [E-10b] | 0
6. CC(=O)NC[C@H]1N[C@H](CO)[C@H](O)[C@H]1O [F-10b] | 0
7. CC(=O)NC[C@@H]1N[C@H](CO)[C@H](O)[C@H]1O [F-10a] | 0.36
8. CC(=O)NC[C@H]1N[C@H](CO)[C@@H](O)[C@@H]1O [4·HCl] | 1.1
9. CC(=O)NC[C@H]1N[C@@H](CO)[C@@H](O)[C@@H]1O [E-10a] | 0.36

* * *

In this section we review reported inhibition at 1000 µM values for a set of compounds.
Tgt: α-Glucosidase (Yeast) (Saccharomyces cerevisiae, UniProt P53341)
Sequence (P53341 whole entry): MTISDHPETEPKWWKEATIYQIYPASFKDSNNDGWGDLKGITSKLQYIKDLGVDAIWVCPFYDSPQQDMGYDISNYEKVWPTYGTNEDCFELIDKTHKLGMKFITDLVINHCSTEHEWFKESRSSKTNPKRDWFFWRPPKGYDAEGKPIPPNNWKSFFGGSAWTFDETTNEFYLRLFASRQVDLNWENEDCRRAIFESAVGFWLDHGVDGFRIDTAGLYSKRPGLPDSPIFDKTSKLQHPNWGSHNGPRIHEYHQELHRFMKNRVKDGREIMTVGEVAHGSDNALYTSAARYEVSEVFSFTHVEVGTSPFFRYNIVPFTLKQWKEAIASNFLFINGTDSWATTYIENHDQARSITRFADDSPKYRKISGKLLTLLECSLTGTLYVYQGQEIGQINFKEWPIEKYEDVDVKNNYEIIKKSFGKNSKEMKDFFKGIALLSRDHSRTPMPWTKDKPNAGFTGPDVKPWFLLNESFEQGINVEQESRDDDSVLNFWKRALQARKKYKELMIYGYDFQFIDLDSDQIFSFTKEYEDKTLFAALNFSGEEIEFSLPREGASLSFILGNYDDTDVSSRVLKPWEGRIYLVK
Test description: α-Glucosidase (yeast) inhibition
Type: biochemical
Measurement conditions: read-out: Inhibition % at 1000 μM
Test readout: inhibition at 1000 µM

1. CC(=O)NC[C@@H]1N[C@H](CO)[C@H](O)[C@H]1O [F-10a] | 6.91%
2. CC(=O)NC[C@@H]1N[C@@H](CO)[C@@H](O)[C@@H]1O [E-10b] | 0%
3. CC(=O)NC[C@@H]1N[C@@H](CO)[C@H](O)[C@H]1O | 0.5%
4. CC(=O)NC[C@H]1N[C@H](CO)[C@H](O)[C@@H]1O | 0%
5. CC(=O)NC[C@H]1N[C@H](CO)[C@H](O)[C@H]1O [F-10b] | 0%
6. CC(=O)NC[C@@H]1N[C@H](CO)[C@@H](O)[C@H]1O | 0%
7. CC(=O)NC[C@H]1N[C@@H](CO)[C@H](O)[C@@H]1O | 0%
8. CC(=O)NC[C@H]1N[C@@H](CO)[C@@H](O)[C@@H]1O [E-10a] | 0%
9. CC(=O)NC[C@@H]1N[C@@H](CO)[C@@H](O)[C@H]1O | 0%

* * *

Listed here are compounds together with their documented inhibition at 1000 µM.
Tgt: α-L-Fucosidase (Bovine kidney) (Bos taurus)
Construct: purchased Sigma-Aldrich Chemical Co; host or cells: bovine kidney
Sequence (Q2KIM0 23-468): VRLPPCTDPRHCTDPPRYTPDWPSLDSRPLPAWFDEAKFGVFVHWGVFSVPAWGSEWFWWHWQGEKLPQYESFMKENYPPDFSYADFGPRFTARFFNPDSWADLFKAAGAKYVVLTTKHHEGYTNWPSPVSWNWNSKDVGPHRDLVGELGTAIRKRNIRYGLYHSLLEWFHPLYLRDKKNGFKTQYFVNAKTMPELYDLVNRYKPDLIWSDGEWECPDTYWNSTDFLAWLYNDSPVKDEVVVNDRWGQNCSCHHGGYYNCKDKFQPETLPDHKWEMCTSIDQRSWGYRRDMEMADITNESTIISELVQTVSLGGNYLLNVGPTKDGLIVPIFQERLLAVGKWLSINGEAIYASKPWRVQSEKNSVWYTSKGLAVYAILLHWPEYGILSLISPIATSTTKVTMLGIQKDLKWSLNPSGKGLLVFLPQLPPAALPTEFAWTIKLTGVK
Test description: α-L-Fucosidase (bovine kidney) inhibition
Type: biochemical
Measurement conditions: 1000 μM, read-out: Inhibition % at 1000 μM
Where a name gives a salt, the structure may show the parent alone.
Test readout: inhibition at 1000 µM

1) CC(=O)NC[C@@H]1N[C@@H](CO)[C@H](O)[C@H]1O | 0%
2) CC(=O)NC[C@@H]1N[C@@H](CO)[C@@H](O)[C@@H]1O [E-10b] | 20.5%
3) CC(=O)NC[C@H]1N[C@@H](CO)[C@@H](O)[C@@H]1O [E-10a] | 41.7%
4) CC(=O)NC[C@@H]1N[C@@H](CO)[C@@H](O)[C@H]1O | 4.9%
5) CC(=O)NC[C@H]1N[C@H](CO)[C@H](O)[C@@H]1O | 1.7%
6) CC(=O)NC[C@H]1N[C@@H](CO)[C@H](O)[C@@H]1O | 11.5%
7) CC(=O)NC[C@@H]1N[C@H](CO)[C@H](O)[C@H]1O [F-10a] | 8.4%
8) CC(=O)NC[C@@H]1N[C@H](CO)[C@@H](O)[C@H]1O | 22.3%
9) CC(=O)NC[C@H]1N[C@H](CO)[C@H](O)[C@H]1O [F-10b] | 3.9%
10) CC(=O)NC[C@H]1N[C@H](CO)[C@@H](O)[C@@H]1O [4·HCl] | 1.5%
